Molecular target: h-GABAA α2β2γ1 (Homo sapiens, UniProt P47869+Q8N1C3)
Sequence (P47869 29-451): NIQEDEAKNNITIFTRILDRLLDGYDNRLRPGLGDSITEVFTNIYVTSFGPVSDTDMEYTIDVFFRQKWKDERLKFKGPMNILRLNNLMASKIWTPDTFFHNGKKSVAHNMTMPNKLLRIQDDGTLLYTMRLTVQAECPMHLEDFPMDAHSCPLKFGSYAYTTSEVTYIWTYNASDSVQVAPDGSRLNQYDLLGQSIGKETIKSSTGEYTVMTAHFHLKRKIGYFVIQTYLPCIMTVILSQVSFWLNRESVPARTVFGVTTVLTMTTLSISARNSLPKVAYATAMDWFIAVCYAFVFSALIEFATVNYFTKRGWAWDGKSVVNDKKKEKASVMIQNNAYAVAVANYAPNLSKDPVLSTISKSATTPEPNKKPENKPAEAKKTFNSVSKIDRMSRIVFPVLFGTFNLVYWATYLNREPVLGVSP
Sequence (P47870 25-512 partner limits assumed): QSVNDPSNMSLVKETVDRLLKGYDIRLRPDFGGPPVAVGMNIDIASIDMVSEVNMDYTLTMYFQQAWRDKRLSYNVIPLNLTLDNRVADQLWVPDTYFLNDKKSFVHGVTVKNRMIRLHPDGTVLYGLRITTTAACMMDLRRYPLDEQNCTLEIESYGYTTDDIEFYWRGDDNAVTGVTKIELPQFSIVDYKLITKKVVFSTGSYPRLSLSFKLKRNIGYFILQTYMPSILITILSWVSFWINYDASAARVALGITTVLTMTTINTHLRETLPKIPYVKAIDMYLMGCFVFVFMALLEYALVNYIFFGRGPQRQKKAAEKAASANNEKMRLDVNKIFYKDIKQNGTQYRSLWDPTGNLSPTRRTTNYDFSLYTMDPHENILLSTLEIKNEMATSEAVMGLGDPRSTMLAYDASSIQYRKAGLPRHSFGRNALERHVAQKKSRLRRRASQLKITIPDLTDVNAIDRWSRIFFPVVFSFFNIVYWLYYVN
Sequence (Q8N1C3 36-465): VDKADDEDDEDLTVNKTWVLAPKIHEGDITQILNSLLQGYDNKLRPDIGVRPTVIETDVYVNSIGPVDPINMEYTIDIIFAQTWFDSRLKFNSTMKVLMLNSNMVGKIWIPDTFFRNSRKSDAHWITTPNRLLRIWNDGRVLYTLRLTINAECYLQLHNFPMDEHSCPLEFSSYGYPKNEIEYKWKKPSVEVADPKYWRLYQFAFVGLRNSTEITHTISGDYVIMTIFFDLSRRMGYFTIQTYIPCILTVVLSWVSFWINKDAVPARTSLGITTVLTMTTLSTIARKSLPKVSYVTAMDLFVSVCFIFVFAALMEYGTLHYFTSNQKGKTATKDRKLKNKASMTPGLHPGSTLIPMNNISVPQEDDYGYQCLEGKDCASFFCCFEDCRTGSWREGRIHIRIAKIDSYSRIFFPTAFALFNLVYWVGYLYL
Assay: Radioligand binding assay, [3H]RO7239181 competition, HEK293F membranes
Experimental: The affinity of compounds at GABAA γ1 subunit-containing receptors was measured by competition for [^3H]RO7239181 (67.3 Ci/mmol; Roche) binding to membranes from HEK293F cells (ThermoFisher R79007) expressing human (transiently transfected) receptors of composition […], α2β2γ1, α1β2γ1. […]
PROPERTY_NAME: log10 Ki (log10 of the value in nM)

- MOLECULE: "Cc1nnc2n1-c1ccc(C(F)(F)F)c(Cl)c1C(c1ncccc1F)=NC2"
  TARGET: "h-GABAA α2β2γ1 (Homo sapiens, UniProt P47869+Q8N1C3)"
  TEST_VALUE: 1.71
- MOLECULE: "Cc1ncc2n1-c1ccc(Cl)cc1C(c1ccccc1F)=NC2 [Midazolam, reference compound]"
  TARGET: "h-GABAA α2β2γ1 (Homo sapiens, UniProt P47869+Q8N1C3)"
  TEST_VALUE: 2.87
- MOLECULE: "Fc1cccnc1C1=NCc2nnc(-c3ccncn3)n2-c2ccc(Br)c(Cl)c21"
  TARGET: "h-GABAA α2β2γ1 (Homo sapiens, UniProt P47869+Q8N1C3)"
  TEST_VALUE: 1.40
- MOLECULE: "Fc1cccc(F)c1C1=NCc2nnc(-c3cccnn3)n2-c2ccc(Cl)c(Cl)c21"
  TARGET: "h-GABAA α2β2γ1 (Homo sapiens, UniProt P47869+Q8N1C3)"
  TEST_VALUE: 0.53
- MOLECULE: "Fc1cccc(F)c1C1=NCc2nnc(-c3ccncn3)n2-c2ccc(Br)c(Br)c21"
  TARGET: "h-GABAA α2β2γ1 (Homo sapiens, UniProt P47869+Q8N1C3)"
  TEST_VALUE: 0.76
- MOLECULE: "Clc1cccnc1C1=NCc2nnc(-c3cccnn3)n2-c2ccc(Br)c(Cl)c21"
  TARGET: "h-GABAA α2β2γ1 (Homo sapiens, UniProt P47869+Q8N1C3)"
  TEST_VALUE: 1.20
- MOLECULE: "O=c1[nH]nc2n1-c1ccc(Br)c(Cl)c1C(c1ccccc1F)=NC2"
  TARGET: "h-GABAA α2β2γ1 (Homo sapiens, UniProt P47869+Q8N1C3)"
  TEST_VALUE: 1.50
- MOLECULE: "Cn1cc(-c2nnc3n2-c2ccc(C(F)(F)F)c(Cl)c2C(c2ncccc2F)=NC3)cn1"
  TARGET: "h-GABAA α2β2γ1 (Homo sapiens, UniProt P47869+Q8N1C3)"
  TEST_VALUE: 1.62
